Measured IC50, listed per entry.
Target: CathepsinG, from human neutrophils (Homo sapiens, UniProt P08311)
Sequence (P08311 21-244): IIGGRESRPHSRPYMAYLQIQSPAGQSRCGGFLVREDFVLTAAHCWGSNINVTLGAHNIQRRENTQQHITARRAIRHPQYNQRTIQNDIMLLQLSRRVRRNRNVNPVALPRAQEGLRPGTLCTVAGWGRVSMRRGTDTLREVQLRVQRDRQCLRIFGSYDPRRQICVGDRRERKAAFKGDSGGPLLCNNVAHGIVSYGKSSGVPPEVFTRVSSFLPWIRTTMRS
Assay: Enzymatic assay, cathepsin G
Details: Cathepsin G IC50
Where a SMILES comes first, the peptide text is derived from it.
State the answer as a number, implicitly in nM.

Recorded results for 6 compounds are shown here.
>  <compound>
CC[C@H](C)[C@@H]1NC(=O)[C@@H]2CCCN2C(=O)[C@H]2CCCN2C(=O)[C@H](CCCNC(=N)N)NC(=O)[C@@H]2CSSC[C@H](NC1=O)C(=O)N[C@@H]([C@@H](C)O)C(=O)N[C@@H](CCCCN)C(=O)N[C@@H](CO)C(=O)N[C@@H](CC(=O)O)C(=O)N1CCC[C@H]1C(=O)N1CCC[C@H]1C(=O)N[C@@H](Cc1ccc(O)cc1)C(=O)N2 [Ex. 18] (HELM PEPTIDE1{I.C.T.K.S.D.P.P.Y.C.R.[dP].P}$PEPTIDE1,PEPTIDE1,2:R3-10:R3|PEPTIDE1,PEPTIDE1,1:R1-13:R2$$$V2.0)

>  <measure_name>
IC50

>  <result_number>
47

$$$$
>  <compound>
CC[C@H](C)[C@@H]1NC(=O)[C@@H]2CCCN2C(=O)[C@@H]2CCCN2C(=O)[C@H](CC(=O)O)NC(=O)[C@H](CO)NC(=O)[C@H](CCCCN)NC(=O)[C@H]([C@@H](C)O)NC(=O)[C@@H]2CSSC[C@H](NC1=O)C(=O)N[C@@H]([C@@H](C)O)C(=O)N1CCC[C@@H]1C(=O)N1CCC[C@H]1C(=O)N[C@@H](C1CCCCC1)C(=O)N2 [Ex. 38] (HELM PEPTIDE1{[O=C([C@@H](N[*:1])C1CCCCC1)[*:2]].C.T.K.S.D.P.P.I.C.T.[dP].P}$PEPTIDE1,PEPTIDE1,2:R3-10:R3|PEPTIDE1,PEPTIDE1,1:R1-13:R2$$$V2.0)

>  <measure_name>
IC50

>  <result_number>
31

$$$$
>  <compound>
CC[C@H](C)[C@@H]1NC(=O)[C@@H]2CCCN2C(=O)[C@@H]2CCCN2C(=O)[C@H](CC(=O)O)NC(=O)[C@H](CO)NC(=O)[C@H](CCCCN)NC(=O)[C@H]([C@@H](C)O)NC(=O)[C@@H]2CSSC[C@H](NC1=O)C(=O)N[C@@H](CO)C(=O)N[C@H](C)C(=O)N[C@@H](CC(=O)O)C(=O)N[C@@H](Cc1ccccc1)C(=O)N2 [Ex. 68] (HELM PEPTIDE1{F.C.T.K.S.D.P.P.I.C.S.[dA].D}$PEPTIDE1,PEPTIDE1,2:R3-10:R3|PEPTIDE1,PEPTIDE1,1:R1-13:R2$$$V2.0)

>  <measure_name>
IC50

>  <result_number>
59

$$$$
>  <compound>
CC[C@H](C)[C@@H]1NC(=O)[C@@H]2CCCN2C(=O)[C@@H]2CCCN2C(=O)[C@H](CC(=O)O)NC(=O)[C@H](CO)NC(=O)[C@H](CCCCN)NC(=O)[C@H]([C@@H](C)O)NC(=O)[C@@H]2CSSC[C@H](NC1=O)C(=O)N[C@@H](CO)C(=O)N1CCC[C@@H]1C(=O)N[C@@H](CC(C)C)C(=O)N[C@@H](Cc1ccccc1)C(=O)N2 [Ex. 51] (HELM PEPTIDE1{C.S.[dP].L.F.C.T.K.S.D.P.P.I}$PEPTIDE1,PEPTIDE1,1:R3-6:R3|PEPTIDE1,PEPTIDE1,1:R1-13:R2$$$V2.0)

>  <measure_name>
IC50

>  <result_number>
91

$$$$
>  <compound>
CCCC[C@@H]1NC(=O)[C@H]([C@@H](C)O)NC(=O)[C@@H]2CSSC[C@H](NC(=O)[C@H]([C@@H](C)CC)NC(=O)[C@@H]3CCCN3C(=O)[C@@H]3CCCN3C(=O)[C@H](CC(=O)O)NC(=O)[C@H](CO)NC1=O)C(=O)N[C@@H](CCCNC(=N)N)C(=O)N1CCC[C@@H]1C(=O)N1CCC[C@H]1C(=O)N[C@@H]([C@@H](C)CC)C(=O)N2 [Ex. 22] (HELM PEPTIDE1{I.C.T.[Nle].S.D.P.P.I.C.R.[dP].P}$PEPTIDE1,PEPTIDE1,2:R3-10:R3|PEPTIDE1,PEPTIDE1,1:R1-13:R2$$$V2.0)

>  <measure_name>
IC50

>  <result_number>
55

$$$$
>  <compound>
CCCC[C@@H]1NC(=O)[C@@H]2CCCN2C(=O)[C@@H]2CCCN2C(=O)[C@H](CC(=O)O)NC(=O)[C@H](CO)NC(=O)[C@H](CCCCN)NC(=O)[C@H]([C@@H](C)O)NC(=O)[C@@H]2CSSC[C@H](NC1=O)C(=O)N[C@@H](Cc1ccc(O)cc1)C(=O)N1CCC[C@@H]1C(=O)N1CCC[C@H]1C(=O)N[C@@H](C1CCCCC1)C(=O)N2 [Ex. 63] (HELM PEPTIDE1{[O=C([C@@H](N[*:1])C1CCCCC1)[*:2]].C.T.K.S.D.P.P.[Nle].C.Y.[dP].P}$PEPTIDE1,PEPTIDE1,2:R3-10:R3|PEPTIDE1,PEPTIDE1,1:R1-13:R2$$$V2.0)

>  <measure_name>
IC50

>  <result_number>
41

$$$$

Exercise: Identify the reported IC50 for the following entry. CC[C@H](C)[C@@H]1NC(=O)[C@@H]2CCCN2C(=O)[C@@H]2CCCN2C(=O)[C@H](CC(=O)O)NC(=O)[C@H](CO)NC(=O)[C@H](CCCCN)NC(=O)[C@H]([C@@H](C)O)NC(=O)[C@@H]2CSSC[C@H](NC1=O)C(=O)N[C@@H](CC(=O)O)C(=O)N1CCC[C@@H]1C(=O)N1CCC[C@H]1C(=O)N[C@@H](CCc1ccccc1)C(=O)N2 [Ex. 29] (HELM PEPTIDE1{[O=C([C@H](CCc1ccccc1)N[*:1])[*:2]].C.T.K.S.D.P.P.I.C.D.[dP].P}$PEPTIDE1,PEPTIDE1,2:R3-10:R3|PEPTIDE1,PEPTIDE1,1:R1-13:R2$$$V2.0)
Solution: 42

Exercise: Identify the reported IC50 for the following entry. CC(C)C[C@@H]1NC(=O)[C@H](CO)NC(=O)[C@H](CCCCN)NC(=O)[C@H]([C@@H](C)O)NC(=O)[C@@H]2CSSC[C@H](NC(=O)[C@H](CCCCN)NC(=O)[C@@H]3CCCN3C(=O)[C@@H]3CCCN3C1=O)C(=O)N[C@@H](CCCNC(=N)N)C(=O)N1CCC[C@@H]1C(=O)N1CCC[C@H]1C(=O)N[C@@H](Cc1c[nH]c3ccccc13)C(=O)N2 [Ex. 195] (HELM PEPTIDE1{W.C.T.K.S.L.P.P.K.C.R.[dP].P}$PEPTIDE1,PEPTIDE1,2:R3-10:R3|PEPTIDE1,PEPTIDE1,1:R1-13:R2$$$V2.0)
Solution: 4000
